# system under test: T1, O8-bS
# T1 chain: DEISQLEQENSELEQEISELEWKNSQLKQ
# method summary: two-hybrid library CCNG1;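 note: natural log of median RNA to DNA barcode read ratio; higher means stronger binding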
quantity measured: interaction score

Query: For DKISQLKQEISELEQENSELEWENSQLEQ [O11-bS] , what is its reported interaction score?
Response: -3.31

Query: For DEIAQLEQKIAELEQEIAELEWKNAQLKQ [4H264-bA] , what is its reported interaction score?
Response: -1.91

Query: For DEISQLEQENSELEQEISELEWKNSQLKQ [O8-bS] , what is its reported interaction score?
Response: -2.12

Query: For DKISQLKQKNSELKQEISELEWKNSQLKQ [O16-bS] , what is its reported interaction score?
Response: -1.97

(P) DKNSQLKQKISELKQENSELEWKISQLKQ [O6-bS]
(Q) DKISQLKQKNSELKQKISELKWENSQLEQ [O7-bS]
(R) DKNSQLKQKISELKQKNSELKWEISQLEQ [O13-bS]
Query: Output the entries ranked by interaction score from maximum down to minimum. As an answer, provide the labels arranged in the order called for.
Response: Q, R, P

Value source: paper PMC10397247
